# Test system: HT1080 cells (human connective tissue cancer cell line)
# Test Details: Inhibition of cell proliferation, xCelligence cell index
# Type: cell-based
# Experimental Setup: HT-1080, 72 hr post compound treatment, read-out: calculated IC50
pIC50: −log10 of the molar value. Counter-ions that a name gives are not always drawn.
Measured Attribute: pIC50

[I] CC[C@]1(O)C[C@H]2CN(CCc3c([nH]c4ccccc34)[C@@](C(=O)OC)(c3cc4c(cc3OC)N(C=O)[C@H]3[C@@](O)(C(=O)OC)[C@H](OC(C)=O)[C@]5(CC)C=CCN6CC[C@]43[C@@H]65)C2)C1
[II] CCc1ccc(Nc2nc(-c3c(C)nc4sccn34)cs2)cc1 [COMPOUND O, monohydrobromide]
Between I and II , whose recorded pIC50 is greater? Indicate your choice by writing its label.
I

###

# System: SW620 cells (human colon cancer cell line)
# Test Details: Inhibition of cell proliferation, xCelligence cell index
# Assay type: cell-based
# Experimental Setup: SW-620, 72 hr post compound treatment, read-out: calculated IC50
Counter-ions that a name gives are not always drawn.
Measured Attribute: IC50 (nM)

[P] CCc1ccc(Nc2nc(-c3c(C)nc4sccn34)cs2)cc1 [COMPOUND O, monohydrobromide]
[Q] CC(=O)O[C@H]1C(=O)[C@@]2(C)[C@H]([C@H](OC(=O)c3ccccc3)[C@]3(O)C[C@H](OC(=O)[C@H](O)[C@@H](NC(=O)c4ccccc4)c4ccccc4)C(C)=C1C3(C)C)[C@]1(OC(C)=O)CO[C@@H]1C[C@@H]2O
Exercise: compare P and Q ; which one has the greater IC50? Label of pick, please.
P
